- Measured on: SARS-CoV-2 full length spike protein, V483A mutant (SARS-CoV-2, UniProt P0DTC2 14-1273)
Quantity name: median fold over isotype (fold over isotype)
The reply should be a number in fold over isotype, with the unit left off.

Below, each entry is followed by its recorded median fold over isotype result.
Please give the measured median fold over isotype for this binder: antibody 517 (antibody, V domains shown) VH: QVQLVESGGGVVQPGRSLRLSCAASGFNLSNYAMHWVRQASGKGLEWVSLISYDGSIKYYTDSVKGRFTVSGDNSKNTLFLQMNSLRADDSALYYCVRGGVSGPNSFDMWGQGTTVTVSS VL: DVVMTQSPLSLPVTLGQPASISCRSSQSLVYSDGNTYVNWFQQRPGQSPRRLIYQVSIRASGVPDRFSGSGSGTDFALKISRVEAEDVGVYYCMQGTHWPVTFGQGTKVEIK
11.5

Input antibody 547 (antibody, V domains shown) VH: QVHLVESGGGVVQPGRSLRLSCAASGFALSSYAMHWVRQPPGKGLEWVALISYDGSVKKYADSVKGRITVSGDNSRNTLHLQINSLRADDTAVYYCVRGGVSGPNSFDLWGHGTMVTVSS VL: DVVLTQSPLSLPVTLGQPASISCRSSQSLEYSVGNTYVNWFQQRPGQSPRRLIYKVSNRDSGVPDRFSGSGSGTDFTLQISRVEADDVGIYYCMQGTHWPVTFGQGTKVEIK
11.4

Input antibody 556 (antibody, V domains shown) VH: QVQLVESGGGVVQPGRSLRLSCAASGFTFSSYAMHWVRQAPGKGLEWVAVISYDGSDKYYADSVKGRVTISRDNSKNTLYLQMNSLRVEDTAVFYCAKDDCSGGVCFPDYWGQGTLVTVSS VL: QSALTQPASVSGSPGQSITISCTGTSSDVGGYNYVSWYQQHPGKAPKLMIYEVSIRPSGVSNRFSGSKSGNTASLTISGLQAEDEAAYYCSSYTSSSTLVFGGGTKLTVL
7.35

Input antibody 514 (antibody, V domains shown) VH: EVQLVQSGAEVKKPGATVKISCKVSGYTFTDYYMHWVQQAPGKGLEWMGLVDPEDGETIYAEKFQGRVTITADTSTDTAYMELSSLRSEDTAVYYCATDCKYDILTGHYSAGYYYYGMDVWGQGTTVTVSS VL: DIQMTQSPSSLSASVGDRVTITCRASQGISNYLAWFQQKPGKAPKSLIYAASSLQSGVPSKFSGSGSGTDFTLTISSLQPEDFATYYCQQYNSYPFTFGGGTKVEIK
1.39

Continue with the next binder.
Please give the measured median fold over isotype for this binder: antibody 543 (antibody, V domains shown) VH: EVQLVESGGGLVQPGRSLRLSCAASGFTFHDYAMHWVRQAPGKGLEWVSGISWNSGSIGYADSVKGRFTISRDNAKNSLYLQMNSLRAEDTALYYCAKDTFGSSSWYRGDSYYYYGMDVWGQGTTVTVSS VL: QSALTQPASVSGSPGQSITISCTGTSSDVGGYNYVSWYQQHPGKAPKLMIYEVSNRPSGVSNRFSGSKSGNTASLTISGLQAEDEADYYCSSYTSSSTQRYVVFGGGTKLTVL
8.92
